Sourced from patent US20250195502A1

System: NCI-H82 (human small cell lung cancer cell)
EXPERIMENTAL_DETAILS: Cell viability assay (Promega CellTiter-Glo), inhibitory effect on NCI-H82
Type: cell-based
STUDY_CONDITIONS: 72 h, 3 days of culture
Recorded pIC50, one value per entry.
Reminder that pIC50 means the negative base-10 logarithm of the concentration expressed in mol/L.

ENTRY_SMILES: CCCCc1c2c(OC)c(OC)cc(Br)c2cc2[n+]1CCc1cc3c(cc1-2)OCO3
pIC50: 6.19
--
ENTRY_SMILES: COc1ccc2cc3[n+](cc2c1OCC(=O)/C=C/c1ccc(C)cc1)CCc1cc2c(cc1-3)OCO2
pIC50: 6.37
--
ENTRY_SMILES: COc1ccc2c(CCCc3ccccc3)c3[n+](cc2c1OC)CCc1cc2c(cc1-3)OCO2
pIC50: 6.48
--
ENTRY_SMILES: COc1ccc(CCCc2c3[n+](cc4c(OC)c(OC)ccc24)CCc2cc4c(cc2-3)OCO4)cc1
pIC50: 6.36
--
ENTRY_SMILES: COc1ccc2cc3[n+](cc2c1OCCCCCCNC(=O)OC(C)(C)C)CCc1cc2c(cc1-3)OCO2
pIC50: 6.48
--
ENTRY_SMILES: COc1ccc2c(Cc3ccc(C(C)(C)C)cc3)c3[n+](cc2c1OC)CCc1cc2c(cc1-3)OCO2
pIC50: 6.49
--
ENTRY_SMILES: CCCCCCc1c2[n+](cc3c(OC)c(OC)ccc13)CCc1cc3c(cc1-2)OCO3
pIC50: 6.57
--
ENTRY_SMILES: COc1ccc2c(Cc3ccc(C(C)C)cc3)c3[n+](cc2c1OC)CCc1cc2c(cc1-3)OCO2
pIC50: 6.52

Challenge: GET /values?readout=pIC50&item= "COc1ccc2cc3[n+](cc2c1OCCCCCCCl)CCc1cc2c(cc1-3)OCO2"
Response given: 6.28

Challenge: Using the record for "CCCCCCCCCCCC(=O)Oc1c(OC)ccc2cc3[n+](cc12)CCc1cc2c(cc1-3)OCO2" , report its pIC50.
Response given: 5.61

Challenge: Item "COc1ccc2cc3[n+](cc2c1OC(=O)CC12CC4CC(CC(C4)C1)C2)CCc1cc2c(cc1-3)OCO2" has what recorded pIC50?
Response given: 5.73

Challenge: GET /values?readout=pIC50&item= "CCCCc1c2c(OC)c(OC)ccc2cc2[n+]1CCc1cc3c(cc1-2)OCO3"
Response given: 5.93

Challenge: Sample "CCCCCc1c2[n+](cc3c(OC)c(OC)ccc13)CCc1cc3c(cc1-2)OCO3" — what was its pIC50?
Response given: 6.44

---

Examples of compounds with documented pIC50 follow.
Tested on: MDA-MB-453 (breast cancer cell)
EXPERIMENTAL_DETAILS: Cell viability assay (Promega CellTiter-Glo), inhibitory effect on MDA-MB-453
Format: cell-based
STUDY_CONDITIONS: Homo sapiens, 72 h, 3 days of culture
Protocol: The inhibitory effect of the compounds prepared in the Examples of the present invention on various tumor cell lines was detected using cell viability assay reagent. Cell viability was detected using the Promega CellTiter-Glo kit, cell viability was determined by directly measuring intracellular ATP content. In the experiment, the ICso value of the compounds prepared in the Examples of the present invention on various tumor cell lines was detected. Each tumor cell was cultured in relevant medium. […]
Scale explanation: pIC50 corresponds to minus log10 of a concentration expressed in moles per litre.

For orientation, consider the following solved cases.
COMPOUND: COc1ccc2c(Cc3ccc(C(F)(F)F)cc3)c3[n+](cc2c1OC)CCc1cc2c(cc1-3)OCO2 [compound AB31805]
OBSERVED_VALUE: 5.39

COMPOUND: CCCCC(=O)Oc1c(OC)ccc2cc3[n+](cc12)CCc1cc2c(cc1-3)OCO2 [compound AB31723]
OBSERVED_VALUE: 5.46

COMPOUND: COc1ccc2cc3[n+](cc2c1OCCCBr)CCc1cc2c(cc1-3)OCO2 [compound AB31721]
OBSERVED_VALUE: 6.37

COMPOUND: COc1ccc2c(Cc3ccc(C(C)(C)C)cc3)c3[n+](cc2c1OC)CCc1cc2c(cc1-3)OCO2 [compound AB31748]
OBSERVED_VALUE: 6.49

Challenge: Please look up its pIC50: CCC(CC)C(=O)Oc1c(OC)ccc2cc3[n+](cc12)CCc1cc2c(cc1-3)OCO2 [compound AB31722]
Response given: 5.85
